# Target Or System: Kir6.2ΔC26 333K channel
# Protocol: ATP inhibition of 333K channels, inside-out patch
# Experimental Setup: read-out: Ki,ATP, Xenopus oocytes, without SUR, n = 6
pKi: −log10 of the molar value.
Quantity Measured: pKi

>>> print(df.to_string())
                    structure_smiles_string  measured_number
0  Nc1ncnc2c1ncn2[C@@H]1O[C@H](COP(=O)(O)OP(=O)([O-])OP(=O)([O-])O)[C@@H](O)[C@H]1O.[Mg+2]             2.66

###

# Target Or System: Kir6.2ΔC26 334A channel
# Protocol: ATP inhibition of 334A channels, inside-out patch
# Assay type: biochemical
# Experimental Setup: read-out: Ki,ATP, Xenopus oocytes, without SUR, −80 mV
pKi: −log10 of the molar value.
Quantity Measured: pKi

>>> print(df.to_string())
                                   molecule  measured_number
0  Nc1ncnc2c1ncn2[C@@H]1O[C@H](COP(=O)(O)OP(=O)([O-])OP(=O)([O-])O)[C@@H](O)[C@H]1O.[Mg+2] [ATP]             2.68

###

# Target Or System: Kir6.2ΔC26 334E channel
# Protocol: ATP inhibition of 334E channels, inside-out patch
# Experimental Setup: read-out: Ki,ATP, Xenopus oocytes, without SUR, −80 mV
pKi: −log10 of the molar value.
Quantity Measured: pKi

>>> df
                    structure_smiles_string  measured_number
0  Nc1ncnc2c1ncn2[C@@H]1O[C@H](COP(=O)(O)OP(=O)([O-])OP(=O)([O-])O)[C@@H](O)[C@H]1O.[Mg+2]             2.23
